Target: Bile acid receptor (Homo sapiens) (UniProt Q96RI1)
Sequence (Q96RI1 whole entry, looked up): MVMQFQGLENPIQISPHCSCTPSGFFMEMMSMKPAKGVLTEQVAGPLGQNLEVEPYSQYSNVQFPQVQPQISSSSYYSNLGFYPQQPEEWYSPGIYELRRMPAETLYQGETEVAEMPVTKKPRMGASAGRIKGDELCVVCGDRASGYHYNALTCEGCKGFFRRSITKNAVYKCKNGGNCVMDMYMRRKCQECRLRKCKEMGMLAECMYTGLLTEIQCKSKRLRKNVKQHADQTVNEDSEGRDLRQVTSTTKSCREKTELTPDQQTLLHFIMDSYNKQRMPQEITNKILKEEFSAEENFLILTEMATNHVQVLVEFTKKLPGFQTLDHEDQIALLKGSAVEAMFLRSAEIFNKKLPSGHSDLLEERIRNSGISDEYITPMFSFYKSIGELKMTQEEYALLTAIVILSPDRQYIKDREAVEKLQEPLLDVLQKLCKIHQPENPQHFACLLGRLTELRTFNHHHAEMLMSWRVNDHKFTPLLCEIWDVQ
Test: OT_FXR_FXRSRC1_1440: Odyssey Thera (OT) 24-hour HEK293T Protein-Complementation Assay for Farnesoid X receptor/SRC-1 Co-activator (AID 2283384)
Records with an inconclusive call do not appear. Active and inactive are the calls of the source. Rule for the calls: active = hit-call score of the fitted dose curve at least 0.9, where 1 is the maximum; inconclusive = response in the unintended direction; inactive = score below 0.9.
measured-endpoint: AC50

compound	value-measured
Cc1c(-c2cccnc2)c2ccccc2n1CCCCC(=O)O	inactive
COc1ccc(/C=C/S(=O)(=O)NC(=O)c2ccc(C)cc2Cl)cc1	7.84 µM (active)
CNS(=O)(=O)c1cc(C(=O)N2CCC(CCN3C4CCC3CC(n3c(C)nc5ccccc53)C4)(c3cccc(F)c3)CC2)c(Cl)cc1F (stereo not given)	17.6 µM (active)
CC(C)c1cccc(C(C)C)c1N1C(=O)c2ccc(O)cc2C1=O	2.63 µM (active)
Oc1ccc2c(c1)-c1ccccc1C2	inactive
